System: MRP2
METHOD NOTES: Effects of influx/efflux transporter inhibitors and CO on morroniside transport in Caco-2 cell monolayers
Type: in vitro ADME, human
REPORTED CONDITIONS: human, Caco-2, pH 7.4; 25 μM morroniside; AP to BL; with indomethacin 200 μM; read-out: PappAB (mean)
MEASURED PROPERTY: Papp A→B at 180 min, 25 μM (×10⁻⁶ cm/s)
Reply with just the number (in ×10⁻⁶ cm/s).

get_value(item= COC(=O)C1=CO[C@@H](O[C@@H]2O[C@H](CO)[C@@H](O)[C@H](O)[C@H]2O)[C@@H]2[C@H](C)O[C@@H](O)C[C@H]12 [morroniside, Morroniside] , readout=Papp A→B at 180 min, 25 μM) returns 12.8
